Assay overview: Confirmatory screen NINDS Rhodamine qHTS for Zika virus inhibitors (AID 1347161); note: nearly all actives have a fitted effect of over 60% in size
Condition set: purified enzyme assay, Rhodamine110 substrate fluorescence, 15 min; series mostly up to 114 µM
Inconclusive results are not listed. Activity calls are given as the source filed them. Calls come from the whole dose curve; as a rule, active = well fitted inhibition curve with a large enough effect; inconclusive = small, poorly fitted or top-dose-only effect; inactive = no such curve, though single readings can be large or run the other way.
Give one outcome, nothing more. List: YES (active), NO (inactive)

Worked examples follow.
O=C(O)c1nc2cc(Cl)c(Cl)cc2[nH]c1=O    NO
O=c1oc2ccccc2cc1-c1nnc(Nc2ccc(Cl)cc2Cl)s1    YES
O=C(O)c1ccccc1-c1c2cc(I)c(=O)c(I)c-2oc2c(I)c(O)c(I)cc12    YES
C=CC(C)(C)c1[nH]c2ccccc2c1C1=C(O)C(=O)C(c2c[nH]c3c(CC=C(C)C)cccc23)=C(O)C1=O    YES
COc1ccc(OC)c(Nc2sc(C(=O)c3ccccc3)c(N)c2S(=O)(=O)c2ccccc2)c1    NO
Cc1c(C2(c3cc(C(C)C)c(O)c(Br)c3C)OS(=O)(=O)c3ccccc32)cc(C(C)C)c(O)c1Br    YES

Task: Which result was noted for this compound in the test: Cc1cc(=O)c2c(O)c3c(O)cc(O)c4c5c(O)cc(O)c6c(O)c7c(=O)cc(C)c8c1c2c(c34)c(c65)c78
Result: NO

Task: Assay result, entry CC(C)c1nn2c(=O)cc(COC(=O)c3ccc(NC(=O)c4cccs4)cc3)nc2s1 — outcome?
Result: NO

Task: Please state the recorded outcome for this compound: CCOC(=O)c1c(-c2ccccc2)csc1NC(=O)c1cc(-c2ccc(Cl)cc2)on1
Result: NO

Task: Please indicate how the test categorized O=C(O)c1c(Br)c(Br)c(Br)c(Br)c1C1c2ccc(O)cc2Oc2cc(O)ccc21 .
Result: YES

Task: Per the assay record, what outcome was assigned to CCOC(=O)c1ccc(CN(Cc2ccc(F)cc2)S(=O)(=O)c2cc(C(=O)Nc3cccc(C(F)(F)F)c3)ccc2F)cc1 ?
Result: NO
